Biological target: Glutathione S-transferase omega-1 (Homo sapiens)
Sequence (P78417 whole entry): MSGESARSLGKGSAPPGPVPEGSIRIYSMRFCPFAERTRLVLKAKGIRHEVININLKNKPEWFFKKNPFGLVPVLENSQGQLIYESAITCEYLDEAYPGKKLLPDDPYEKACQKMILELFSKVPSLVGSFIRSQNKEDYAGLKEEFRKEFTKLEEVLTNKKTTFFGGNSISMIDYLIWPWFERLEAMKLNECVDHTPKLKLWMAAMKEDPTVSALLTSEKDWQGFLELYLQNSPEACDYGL
Test: Inhibition of recombinant GSTO1-1 (unknown origin) expressed in Escherichia coli using S-(4-nitrophenacyl)glutathione as substrate preincubated for 2 mins followed by substrate addition by 4-NPG assay
Known IC50 of a selection of compounds
Could you give me the number in µM? Just the number is fine.

Examples with their reported IC50 follow.
- COMPOUND: "COCCCN(C)S(=O)(=O)c1cc(NC(=O)CCl)ccc1Cl"
  READOUT: "IC50"
  MEASUREMENT: 0.16
- COMPOUND: "COCCN(C)S(=O)(=O)c1cc(NC(=O)CCl)ccc1Cl"
  READOUT: "IC50"
  MEASUREMENT: 0.08

Lookup: Reported IC50, compound CN(C)S(=O)(=O)c1cc(CCCS(=O)(=O)F)ccc1Cl : ____
Found: 3.2

Lookup: Reported IC50, compound CN(C)S(=O)(=O)c1cc(C2CO2)ccc1Cl (configuration not stated) : ____
Found: 1.2

Lookup: Reported IC50, compound CNS(=O)(=O)c1cc(NC(=O)CCl)ccc1Cl : ____
Found: 0.58
